Values from ChEMBL document CHEMBL5500393

Recorded MIC for the following compounds
System: Candida albicans
measurement_description: Antimicrobial activity against Candida albicans SC5314 measured after 48 hrs by CLSI protocol based microdilution method
Format: functional

compound	MIC
COc1ccc(N2CC(c3nc4ccccc4n3C)CC2=O)cc1OC (stereo unspecified)	> 32 µg/mL
Cc1cccc(NC(=O)CCc2nc3ccccc3n2C)c1C	> 32 µg/mL
Cn1c(C2CC(=O)N(c3ccc(O)c(O)c3)C2)nc2ccccc21 (stereo unspecified)	> 32 µg/mL
Cn1c(C(=O)NCc2ccccc2)nc2ccccc21	> 32 µg/mL
COc1ccc(N2CC(c3nc4ccccc4n3C)CC2=O)cc1Br (stereo unspecified)	> 32 µg/mL
Cn1c(C2CC(=O)N(c3ccc4ccccc4c3)C2)nc2ccccc21 (stereo unspecified)	> 32 µg/mL
CCCn1c(C2CC(=O)N(c3cccc(Br)c3C)C2)nc2ccccc21 (stereo unspecified)	> 32 µg/mL
Cn1c(C2CC(=O)N(c3ccccc3-c3ccccc3)C2)nc2ccccc21 (stereo unspecified)	> 32 µg/mL
Cc1cccc(N2CC(c3nc4ccccc4n3C)CC2=O)c1 (stereo unspecified)	> 32 µg/mL
Cn1c(CCC(=O)NCc2ccccc2)nc2ccccc21	> 32 µg/mL
COc1c(Br)cccc1N1CC(c2nc3ccccc3n2C)CC1=O (stereo unspecified)	> 32 µg/mL
